B1: PCMTD2 (parent)
chain: FFIRTSDSFDKFDFCEPSFVTGNC

variants of: B1; assay: protein stability index of a GFP-peptide fusion (GPS, HEK-293T) (PSI 1-6); higher = more stable; details: c terminus: a fixed tail appended;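 also: lentivirally expressed fusions sorted by FACS into six bins by GFP to DsRed ratio, PSI derived from sequencing read proportions per bin multiplied by bin number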
Use YES when the recorded protein stability index is no lower than 3; use NO when it is lower.

• D13M = NO
• K11H = NO
• D13T = YES
• F14A = NO
• T21E = NO
• F12K = NO
• D7F = YES
• N23P = NO
• G22L = NO
• G22W = YES
• F1M = NO
• E16C = NO
• K11L = NO
• F9S = NO
• F9R = NO
• V20T = NO
• K11C = NO
• F14K = NO
• C24A = NO
• F9I = NO
• E16M = YES
• S18A = NO
• F9W = NO
• F12W = YES
• F9A = NO
• E16Y = YES
• F9K = NO
• S6D = YES
• D7R = NO
• K11D = NO
• F2V = YES
• D10L = NO
• K11R = YES
• R4V = NO
• S8F = NO
• S6I = NO
• F2K = NO
• D13Q = YES
• I3R = NO
• C24E = NO
• F2G = NO
• S6T = YES
• C15Q = YES
